Reference for the values: ChEMBL document CHEMBL1139673

Organism: Homo sapiens
experimental protocol: Selectivity for factor 7a versus trypsin
Recorded Selectivity ratio by entry
Lab note: record just the number, no unit beside it.

So what's the measured Selectivity ratio for this one? COc1ccc(C#N)cc1-c1cc(C(CC(=O)O)C(=O)O)cc(-c2nc3cc(C(=N)N)ccc3[nH]2)c1O (centres undefined)
54

----------
Endpoint: pKi. System: UniProt P08709. Items follow.
Sequence (P08709 61-212 limits assumed): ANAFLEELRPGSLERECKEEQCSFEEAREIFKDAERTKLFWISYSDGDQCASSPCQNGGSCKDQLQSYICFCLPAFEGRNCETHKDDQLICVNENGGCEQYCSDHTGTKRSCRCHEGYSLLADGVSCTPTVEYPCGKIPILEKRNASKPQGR
Sequence (P08709 213-466 limits assumed): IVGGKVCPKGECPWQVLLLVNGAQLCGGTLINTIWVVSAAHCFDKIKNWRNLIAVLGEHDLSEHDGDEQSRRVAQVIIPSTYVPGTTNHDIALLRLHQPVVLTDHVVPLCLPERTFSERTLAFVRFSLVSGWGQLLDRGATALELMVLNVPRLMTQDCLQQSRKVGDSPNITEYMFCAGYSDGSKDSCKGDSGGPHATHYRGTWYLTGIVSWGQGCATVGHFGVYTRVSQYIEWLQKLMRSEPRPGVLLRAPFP
Lab note: report pKi as minus log10 of the concentration in molar units, number only.

Worked examples follow.
>>> obs_value("N=C(N)c1ccc2nc(-c3cc(C(CC(=O)O)C(=O)O)cc(-c4cc(Cl)cc(Cl)c4)c3O)[nH]c2c1 (stereo not given)")
7.57
>>> obs_value("COc1ccc(-c2cc(C(CC(=O)O)C(=O)O)cc(-c3nc4cc(C(=N)N)ccc4[nH]3)c2O)cc1 (stereo not given)")
5.65

So what's the measured pKi for this one? N=C(N)c1ccc2[nH]c(-c3cc(C(CC(=O)O)C(=O)O)cc(-c4cccc(CN)c4)c3O)nc2c1 (stereo not given)
6.11

Item: N=C(N)c1ccc2[nH]c(-c3cc(C(CC(=O)O)C(=O)O)cc(-c4ccccc4CS)c3O)nc2c1 (stereo not given)
7.19

Item: N=C(N)c1ccc2[nH]c(-c3cc(C(CC(=O)O)C(=O)O)cc(-c4ccc(O)cc4)c3O)nc2c1 (stereo not given)
6.06

Item: Cc1ccccc1-c1cc(C(CC(=O)O)C(=O)O)cc(-c2nc3cc(C(=N)N)ccc3[nH]2)c1O (stereo not given)
6.30

Item: N=C(N)c1ccc2nc(-c3cc(C(CC(=O)O)C(=O)O)cc(-c4cc(F)cc(F)c4)c3O)[nH]c2c1 (stereo not given)
7.17

Item: N=C(N)c1ccc2[nH]c(-c3cc(C(CC(=O)O)C(=O)O)cc(-c4cccc(Cl)c4)c3O)nc2c1 (stereo not given)
7.18

Item: N=C(N)c1ccc2[nH]c(-c3cc(C(CC(=O)O)C(=O)O)cc(-c4cc(Cl)cc(Cl)c4O)c3O)nc2c1 (stereo not given)
7.85

Item: N#Cc1ccc(O)c(-c2cc(C(CC(=O)O)C(=O)O)cc(-c3nc4cc(C(=N)N)ccc4[nH]3)c2O)c1 (stereo not given)
7.92

Item: N=C(N)c1ccc2[nH]c(-c3cc(C(CC(=O)O)C(=O)O)cc(-c4ccccc4)c3O)nc2c1 (stereo not given)
7.13

Item: N=C(N)c1ccc2[nH]c(-c3cc(C(CC(=O)O)C(=O)O)cc(-c4cc([N+](=O)[O-])ccc4O)c3O)nc2c1 (stereo not given)
8.22

Item: Cc1cccc(-c2cc(C(CC(=O)O)C(=O)O)cc(-c3nc4ccc(C(=N)N)cc4[nH]3)c2O)c1 (stereo not given)
7.42

Item: N=C(N)c1ccc2nc(-c3cc(C(CC(=O)O)C(=O)O)cc(-c4ccc(Cl)cc4)c3O)[nH]c2c1 (stereo not given)
6.36

Item: N=C(N)c1ccc2[nH]c(-c3cc(C(CC(=O)O)C(=O)O)cc(-c4c(O)cc(Cl)cc4Cl)c3O)nc2c1 (stereo not given)
7.60

----------
Organism: Homo sapiens
experimental protocol: Selectivity for factor 7a versus trypsin
readout label: Selectivity ratio

Worked examples follow.
>>> obs_value("N=C(N)c1ccc2[nH]c(-c3cc(C(CC(=O)O)C(=O)O)cc(-c4cc(F)ccc4O)c3O)nc2c1 (centres undefined)")
4400
>>> obs_value("N=C(N)c1ccc2[nH]c(-c3cc(C(CC(=O)O)C(=O)O)cc(-c4cccc(Cl)c4Cl)c3O)nc2c1 (centres undefined)")
44
>>> obs_value("N=C(N)c1ccc2[nH]c(-c3cc(C(CC(=O)O)C(=O)O)cc(-c4cccc(N)c4)c3O)nc2c1 (centres undefined)")
250

Please examine the following record next.
So what's the measured Selectivity ratio for this one? N#Cc1ccc(O)c(-c2cc(C(CC(=O)O)C(=O)O)cc(-c3nc4cc(C(=N)N)ccc4[nH]3)c2O)c1 (centres undefined)
2960

----------
Organism: Homo sapiens
experimental protocol: Selectivity for factor 7a versus trypsin
Group membership follows Selectivity ratio per the scheme low bracket: < 40; middle bracket: ≥ 40 and < 100; high bracket: ≥ 100

Previously resolved entries follow.
>>> cat("Cc1cccc(-c2cc(C(CC(=O)O)C(=O)O)cc(-c3nc4cc(C(=N)N)ccc4[nH]3)c2O)c1 (stereo not drawn)")
"high bracket"
>>> cat("N=C(N)c1ccc2[nH]c(-c3cc(C(CC(=O)O)C(=O)O)cc(-c4cc([N+](=O)[O-])ccc4O)c3O)nc2c1 (stereo not drawn)")
"high bracket"
>>> cat("N=C(N)c1ccc2[nH]c(-c3cc(C(CC(=O)O)C(=O)O)cc(-c4cc(Cl)ccc4Cl)c3O)nc2c1 (stereo not drawn)")
"low bracket"

Bin? N=C(N)c1ccc2[nH]c(-c3cc(C(CC(=O)O)C(=O)O)cc(-c4cccc([N+](=O)[O-])c4)c3O)nc2c1 (stereo not drawn)
high bracket

Item: COc1ccc(F)cc1-c1cc(C(CC(=O)O)C(=O)O)cc(-c2nc3cc(C(=N)N)ccc3[nH]2)c1O (stereo not drawn)
middle bracket

Item: N=C(N)c1ccc2[nH]c(-c3cc(C(CC(=O)O)C(=O)O)cc(-c4cccc(OC(F)F)c4)c3O)nc2c1 (stereo not drawn)
middle bracket

Item: N=C(N)c1ccc2[nH]c(-c3cc(C(CC(=O)O)C(=O)O)cc(-c4ccccc4[N+](=O)[O-])c3O)nc2c1 (stereo not drawn)
low bracket

Item: N=C(N)c1ccc2[nH]c(-c3cc(C(CC(=O)O)C(=O)O)cc(-c4ccccc4)c3O)nc2c1 (stereo not drawn)
middle bracket

Item: N#Cc1cccc(-c2cc(C(CC(=O)O)C(=O)O)cc(-c3nc4cc(C(=N)N)ccc4[nH]3)c2O)c1 (stereo not drawn)
middle bracket

Item: N=C(N)c1ccc2[nH]c(-c3cc(C(CC(=O)O)C(=O)O)cc(-c4c(O)cc(Cl)cc4Cl)c3O)nc2c1 (stereo not drawn)
high bracket

----------
Species: Homo sapiens
experimental protocol: Selectivity for factor 7a versus trypsin
readout label: Selectivity ratio
Lab note: record just the number, no unit beside it.

So what's the measured Selectivity ratio for this one? Cc1ccccc1-c1cc(C(CC(=O)O)C(=O)O)cc(-c2nc3cc(C(=N)N)ccc3[nH]2)c1O (stereo not drawn)
16

Item: N=C(N)c1ccc2[nH]c(-c3cc(C(CC(=O)O)C(=O)O)cc(-c4cc(Cl)cc(Br)c4O)c3O)nc2c1 (stereo not drawn)
398

Item: N=C(N)c1ccc2[nH]c(-c3cc(C(CC(=O)O)C(=O)O)cc(-c4cc(F)cc(F)c4)c3O)nc2c1 (stereo not drawn)
115

Item: N=C(N)c1ccc2[nH]c(-c3cc(C(CC(=O)O)C(=O)O)cc(-c4ccc(F)c(Cl)c4)c3O)nc2c1 (stereo not drawn)
34

Item: Cc1ccc(-c2cc(C(CC(=O)O)C(=O)O)cc(-c3nc4cc(C(=N)N)ccc4[nH]3)c2O)cc1 (stereo not drawn)
8

Item: Cc1cc(C)cc(-c2cc(C(CC(=O)O)C(=O)O)cc(-c3nc4cc(C(=N)N)ccc4[nH]3)c2O)c1 (stereo not drawn)
1080

Item: N=C(N)c1ccc2[nH]c(-c3cc(C(CC(=O)O)C(=O)O)ccc3O)nc2c1 (stereo not drawn)
1

Item: Cc1cccc(NC(=O)Cc2cc(C(CC(=O)O)C(=O)O)cc(-c3nc4cc(C(=N)N)ccc4[nH]3)c2O)c1 (stereo not drawn)
102

----------
Organism: Homo sapiens
experimental protocol: Selectivity for factor 7a versus trypsin
Recorded Selectivity ratio by entry
Lab note: record just the number, no unit beside it.

>>> obs_value("N=C(N)c1ccc2[nH]c(-c3cc(C(CC(=O)O)C(=O)O)cc(-c4cc(Cl)ccc4O)c3O)nc2c1 (stereo not drawn)")
2500
>>> obs_value("N=C(N)c1ccc2[nH]c(-c3cc(C(CC(=O)O)C(=O)O)cc(-c4ccccc4O)c3O)nc2c1 (stereo not drawn)")
1080

Please examine the following record next.
So what's the measured Selectivity ratio for this one? N=C(N)c1ccc2[nH]c(-c3cc(C(CC(=O)O)C(=O)O)cc(-c4cccc(Cl)c4)c3O)nc2c1 (stereo not drawn)
59

----------
Species on record: Homo sapiens
experimental protocol: Selectivity for factor 7a versus trypsin
readout label: Selectivity ratio
Lab note: record just the number, no unit beside it.

>>> obs_value("N=C(N)c1ccc2[nH]c(-c3cc(C(CC(=O)O)C(=O)O)cc(-c4cccc(O)c4)c3O)nc2c1 (stereo not drawn)")
99
>>> obs_value("N=C(N)c1ccc2[nH]c(-c3cc(C(CC(=O)O)C(=O)O)cc(-c4cc(N)ccc4O)c3O)nc2c1 (stereo not drawn)")
1790
>>> obs_value("N=C(N)c1ccc2[nH]c(-c3cc(C(CC(=O)O)C(=O)O)cc(-c4ccc(Cl)cc4)c3O)nc2c1 (stereo not drawn)")
2
>>> obs_value("N=C(N)c1ccc2[nH]c(-c3cc(C(CC(=O)O)C(=O)O)cc(-c4ccccc4CO)c3O)nc2c1 (stereo not drawn)")
16
>>> obs_value("CC(C)(C)c1ccc(-c2cc(C(CC(=O)O)C(=O)O)cc(-c3nc4cc(C(=N)N)ccc4[nH]3)c2O)cc1 (stereo not drawn)")
1
>>> obs_value("CC(=O)Nc1cccc(-c2cc(C(CC(=O)O)C(=O)O)cc(-c3nc4cc(C(=N)N)ccc4[nH]3)c2O)c1 (stereo not drawn)")
118

So what's the measured Selectivity ratio for this one? N=C(N)c1ccc2[nH]c(-c3cc(C(CC(=O)O)C(=O)O)cc(-c4cc(Cl)cc(Cl)c4Cl)c3O)nc2c1 (stereo not drawn)
39

Item: CC(C)c1cccc(-c2cc(C(CC(=O)O)C(=O)O)cc(-c3nc4cc(C(=N)N)ccc4[nH]3)c2O)c1 (stereo not drawn)
40

Item: N=C(N)c1ccc2[nH]c(-c3cc(C(CC(=O)O)C(=O)O)cc(-c4ccccc4N)c3O)nc2c1 (stereo not drawn)
41

Item: CC(=O)c1cccc(-c2cc(C(CC(=O)O)C(=O)O)cc(-c3nc4cc(C(=N)N)ccc4[nH]3)c2O)c1 (stereo not drawn)
197

Item: N=C(N)c1ccc2[nH]c(-c3cc(C(CC(=O)O)C(=O)O)cc(-c4cccc(CO)c4)c3O)nc2c1 (stereo not drawn)
216

Item: N=C(N)c1ccc2[nH]c(-c3cc(C(CC(=O)O)C(=O)O)cc(-c4cc(Cl)cc(Cl)c4O)c3O)nc2c1 (stereo not drawn)
421
